Give log10(Time) for every item shown.
# System: Streptococcus mutans
# measurement-description: Bactericidal activity against Streptococcus mutans UA159 assessed as time required to kill 3 log10 of recoverable CFU/ml at 25 ug/ml relative to untreated control
# Format: functional
Form field - Quantity: Time; Unit: min; Scale: log10

| substance | log10(Time) |
| --- | --- |
| H-RWRWRWFASASARWRWRWF-NH2 | 1.65 |
| H-RWRWRWFRWRWRWF-NH2 | 1.70 |

// for each substance in input: emit log10(Time)
1. H-RRRWWWFRRRWWWF-NH2
2. H-RWRWRWFGGGRWRWRWF-NH2
3. H-RWRWRWFPSGSPRWRWRWF-NH2
4. H-RWRWRWF-NH2
5. H-RRRWWWFGGGRRRWWWF-NH2

Reply:
1. 1.78
2. 1.95
3. 2.43
4. 2.34
5. 2.43

Please state, for each entry, its recorded log10(Time).
1. H-RRRWWWFPSGSPRRRWWWF-NH2
2. H-RRRWWWFASASARRRWWWF-NH2
3. H-RRRWWWF-NH2

Reply:
1. 2.62
2. 2.68
3. 2.34

====

# Test system: Streptococcus sanguinis
# measurement-description: Antibacterial activity against Streptococcus sanguinis NY101 after 16 to 20 hrs
# Format: functional
endpoint-label: MIC (µg/mL)
Numbers only, in µg/mL.

// solved cases for MIC follow
| substance | MIC / µg/mL |
| --- | --- |
| H-IKQLLHFFQRFGGGRWRWRWF-NH2 | 16 |
| H-FKKFWKWFRRF-NH2 | 32 |
| H-RWRWRWF-NH2 | 32 |
| H-RWRRLLKKLHHLLH-NH2 | 16 |
| H-RRRWWWF-NH2 | 16 |

// batch mode: one MIC value per listed entry
1. H-IKQLLHFFQRF-NH2
2. H-LKRFLKWFKRF-NH2
3. H-RWRWRWFGGGLKRFLKWFKRF-NH2

Reply:
1. 64
2. 16
3. 16

Give one value of MIC per listed substance.
1. H-RWRWRWFGGGFKKFWKWFRRF-NH2
2. H-LKRFLKWFKRFGGGRWRWRWF-NH2

Reply:
8
16

Okay, here is my list. What is MIC for each of these?
1. H-FKKFWKWFRRFGGGRWRWRWF-NH2
2. H-RWRRLLKKLHHLLHGGGFKKFWKWFRRF-NH2

Reply:
1: 16; 2: 16

====

# Tested on: Streptococcus mitis
# measurement-description: Antibacterial activity against Streptococcus mitis ATCC 903 after 16 to 20 hrs
# Format: functional
Hi there, I'd appreciate the recorded MIC for every entry that follows.
Give bare numbers, in µg/mL.

Here's what some known entries look like.
| substance | endpoint-label | unit-info | observed-result |
| --- | --- | --- | --- |
| H-LKRFLKWFKRFGGGRWRWRWF-NH2 | MIC | µg/mL | 64 |
| H-RWRWRWFGGGFKKFWKWFRRF-NH2 | MIC | µg/mL | 64 |
| H-RRRWWWF-NH2 | MIC | µg/mL | 32 |
| H-LKRFLKWFKRF-NH2 | MIC | µg/mL | 64 |
| H-RWRWRWFGGGLKRFLKWFKRF-NH2 | MIC | µg/mL | 64 |
| H-RWRRLLKKLHHLLH-NH2 | MIC | µg/mL | 32 |
| H-FKKFWKWFRRFGGGRWRWRWF-NH2 | MIC | µg/mL | 64 |

# input for lookup
Query: Reported MIC, substance H-FKKFWKWFRRF-NH2 : ____
Reply: 32

Data credit: ChEMBL document CHEMBL1147117
